Recorded melting point, one value per entry.

MOLECULE	melting point
Cc1cc(Cc2cnc(NCCCN(Cc3ccccc3)c3ccccn3)[nH]c2=O)cnc1C	95 to 99 °C
CCOC(=O)c1ncc2[nH]c3c(Br)cc(Br)cc3c2c1COC	98 to 99 °C
O=C(NC12CC3CC(CC1C3)C2)c1ccccc1C(c1ccc(O)cc1)c1ccc(O)cc1	219 to 224 °C
C#CCn1c(-c2ccccc2)nc(C(F)(F)F)c(CC)c1=O	111 to 114 °C
CC1(C)CCC(C)(C)c2cc(C(O)C(=O)Nc3ccc(C(=O)O)cc3)ccc21 (stereo not given)	220 to 221 °C

###

Listed next: entries and their corresponding melting point.
READOUT_LABEL: melting point

MOLECULE	READOUT_LABEL	ASSAY_RESULT
Cn1nc(Cl)c(C2=NOCCO2)c1S(N)(=O)=O	melting point	158 °C
CN1CCC(c2c[nH]c3ccc(/C=C/C(N)=O)cc23)CC1	melting point	82 to 83.5 °C
CCCCc1nc(Cl)c(CO)n1Cc1ccc(-c2nc3ccccn3c2C(=O)O)cc1	melting point	173 to 175 °C
CCNC(=O)n1nc(Oc2c(Cl)cc(C(F)(F)F)cc2Cl)cc1C(C)C	melting point	74 to 76 °C
O=S(=O)(Nc1ccc2c(OCc3ccc(Cl)cc3Cl)cccc2c1)C(F)(F)F	melting point	142 to 144 °C
CCCCN(Cc1ccc(-c2ccccc2-c2nnnn2C(c2ccccc2)(c2ccccc2)c2ccccc2)cc1)c1nc(C)ccc1C(=O)OCC	melting point	120 to 122 °C
Cc1ccc(Nc2nc(-c3cc(-c4ccccc4)no3)cs2)nc1	melting point	224 to 227 °C
O=C1c2cccc3c4c(cc(c23)C(=O)N1O)OCO4	melting point	303 to 304 °C
CC(C)(C)OC(=O)N1CCC[C@H](O)[C@@H]1c1ccccc1	melting point	66 to 67 °C
O=C(O)c1ccccc1I(=O)=O	melting point	226 to 234 °C
CS(=O)c1csc(NC(=O)c2ccccc2O)n1 (stereo not given)	melting point	240 °C
Nc1cc(Cl)c(S(N)(=O)=O)cc1N	melting point	216 °C
CC(C)N1CCN(S(=O)(=O)c2ccc(NC(=O)Nc3ccc(C(F)(F)F)cc3)cc2)CC1	melting point	208 to 212 °C
COC(=O)c1cc2sccc2s1	melting point	96 to 97 °C
O=S1N=C(NCCCN(Cc2ccccc2)c2ccccn2)C(NCc2ccncc2)=N1 (stereo not given)	melting point	140 to 142 °C
OCCOCCn1c(NC2CCNCC2)nc2ccccc21	melting point	164 °C
O=C1CCCc2nc3ccccc3c(NCc3cccc(C(F)(F)F)c3)c21	melting point	147 to 149 °C
N#Cc1ccc2c(OCc3ccccc3)cc(C(=O)O)cc2c1	melting point	235 °C
C[C@@H](n1cnn(-c2ccc(OCC(F)(F)C(F)F)cc2)c1=O)[C@@]1(c2ccc(F)cc2F)CO1	melting point	116 to 117 °C
COc1c(C(=O)Nc2ccc(OCC(C)(C)C)c(C#N)c2)cnn1-c1ccc(F)cc1	melting point	120 to 123 °C
OC(CNc1ccnc2cc(Cl)ccc12)c1ccccc1 (stereo not given)	melting point	221 to 222 °C
N#C[C@H](O)c1cccc(Oc2ccccc2)n1	melting point	95 °C
CC(C)(C)[Si](C)(C)OCCCC(=O)c1cc(-c2ccc(S(C)(=O)=O)cc2)n(C2CCCCC2)n1	melting point	131 to 133 °C
CCN(CC)C(=O)Nc1ccc(NCc2ccccc2Cl)cc1N	melting point	153 to 155 °C
CCOC(=O)c1ncn(-c2nccs2)c1S(N)(=O)=O	melting point	84 to 85 °C
CC(C)N1CCC(CNc2ccc(Cl)cc2C(=O)Nc2ccc(F)cn2)CC1	melting point	72 to 74 °C
Cc1noc(NS(=O)(=O)c2ccccc2-c2ccccc2)c1Br	melting point	145 to 147 °C
CC(C)(c1ccc(Oc2cccc(N)c2)cc1)c1cccc(C(C)(C)c2ccc(Oc3cccc(N)c3)cc2)c1	melting point	94 to 96 °C
Cc1nc(Nc2nc3ccccc3[nH]2)nc(O)c1CC(=O)O	melting point	> 300 °C
O=C(c1ccc(Cl)cc1)c1c(N2C(=O)c3ccccc3C2=O)sc(-c2ccccc2)c1CN1CCCCC1	melting point	187 to 189 °C
CON1C(=O)CC2(CCN(C(=O)OCCBr)CC2)C1=O	melting point	134 °C
Cc1nc(N(C)c2cccnc2)sc1-c1ccnc(Nc2ccc(N3CCOCC3)cc2)n1	melting point	194 to 195 °C
COc1cccc(Nc2n[nH]c3ncn(-c4cccc(Cl)c4)c(=N)c23)c1	melting point	190 to 192 °C
COc1ccc2ncc([N+](=O)[O-])c(O)c2c1	melting point	278 to 281 °C
Cc1cc(Cl)cc(C(=O)NC2(C)CSC2)c1NC(=O)c1cc(C(F)(F)F)nn1-c1ncccc1Cl	melting point	238 to 241 °C
Cc1ccc(S(=O)(=O)Nc2ccc3c(=O)c4c(sc3c2)CC(C)(C)CC4)cc1	melting point	279 °C
CC(=O)Nc1nc(OCC(C)C)c2nc(Cl)ccc2n1	melting point	168 °C
CC(C)SN(c1ccccc1)P(=O)(c1ccccc1)c1ccccc1	melting point	148 to 150 °C
CCOP(=O)(Cc1ccnc(C(N)=O)c1)OCC	melting point	140 to 142 °C
Cc1ccc(CC(=O)CCCC(=O)O)c(C)c1	melting point	75 to 76.5 °C

###

ITEM_SMILES	melting point
N#CCOc1c(-c2ccccc2)c(=O)[nH]c2cc(Cl)ccc12	209 to 211 °C
CCn1c(=O)c2c(nc(/C=C/c3ccccc3OC)n2C)n(CC)c1=O	190 °C
N=C(Nc1ccc(C(F)(F)F)cc1)c1ccc(Cl)cc1Cl	108 to 109 °C
COC(=O)CC/C(C)=C/Cc1c(OC)c(C)c2c(c1C(=O)O)C(=O)OC2	169 to 170 °C
O=C(Nc1ccc(C(=O)N2C[C@@H]3CCCN3C(=S)c3ccccc32)cc1)c1ccccc1-c1ccccc1	234 to 236 °C

###

Let's look at some molecules and their measured melting point.

ITEM_SMILES	melting point
CN(c1ccc(C(=O)O)cc1)c1cc2c3c(c1)CCCC3CCC2	288 to 289 °C
O=C(O)c1cccc(-c2cccc(Oc3ccc(Cl)c(Cl)c3)n2)c1	230 to 231 °C
CN(C)CCN(C)CC(=O)N1c2ccccc2N(C)C(=O)c2cnc(-c3ccccc3)nc21	125 °C
O=C1CCN(C2(OCCOc3ccccc3)OCCO2)CC1	105 to 106 °C
COc1cc(OC)nc(C(=O)NS(=O)(=O)Oc2c(Cl)cccc2Cl)n1	136 to 139 °C

###

Collected melting point values appear next to each entry.

COMPOUND	melting point
CCOC(=O)C(=CNNc1c(Cl)cc(Cl)cc1Cl)C(=O)OCC	92 °C
OCC=Cc1ccc(Br)cc1F	38 to 40 °C
O=C(NCC(=O)N1c2ccccc2N(Cc2ccccc2)C(=O)[C@H]2CCC[C@H]21)c1ccccc1 (relative stereo)	201 to 203 °C
O=C(N(Cc1cccs1)CC1CCCCC1)C12CC3CC(CC(C3)C1)C2	112 to 116 °C
CS(=O)(=O)c1ccc(OCC2CCN(CC3CC3)CC2)cc1	134 to 135 °C
COc1cc(CCl)c(CCNC(=O)C(F)(F)F)cc1OC	140 °C
CCOC(=O)C1=C(C#N)Nc2nccn2C1c1cccc([N+](=O)[O-])c1 (centres undefined)	260 to 261 °C
CSc1ccc(C=C2C(C)=C(CC(=O)O)c3cc(F)c(F)cc32)cc1	181 to 182 °C
O=C(O)c1cn(C2CC2)c2c(F)c(N3CC4CC3CN4Cc3ccc([N+](=O)[O-])cc3)c(F)cc2c1=O (centres undefined)	177 to 182 °C

###

Overview of recorded melting point for various compounds

COMPOUND	melting point
Cc1c(C(=O)c2cc(O)c(O)c([N+](=O)[O-])c2)[nH]c2ccccc12	212 to 214 °C
COc1ccc(Nc2nc(-c3ccccc3)cc(N3CCC(OC(=O)CCC(=O)O)CC3)n2)cc1Cl	218 to 220 °C
CCN(C(=O)OC(C)(C)C)C1CC=C(c2c[nH]c3ccc(N)cc23)CC1 (centres undefined)	87 to 89 °C
O=C(Nc1ccc2cc(CN3CCCC3)cnc2c1F)c1ccc(-c2ccc(F)cc2)cc1	178 °C
O=C(O)COc1cc(Cl)ccc1C(=O)NCc1ccc2c(c1)OCO2	208 to 209 °C
CCN1CN(C)CN(c2cc(Cl)ccc2C)C1=S	129 to 131 °C
O=C(O)c1cc(=O)cc(C=Cc2ccccc2)o1	227 to 228 °C
Cc1cc(-c2nc3cc(OC(C)C)cc(OC(C)C)c3c(=O)[nH]2)cc(C)c1OCCN1CCCC1	65 to 68 °C
COc1ccc(C(=NO)c2cc(F)ccc2F)c(O)c1Cl	209 to 210 °C
N#Cc1ncn2c(C(F)(F)F)cc(-c3ccccc3Cl)nc12	180 °C
CC(=O)Nc1nc(CCc2ccc(NC3=NCCN3)cc2)c(Cc2ccc(S(C)(=O)=O)cc2)s1	139 to 140 °C
O=C(O)c1cn(C2CN(C(c3ccccc3)c3ccccc3)C2)c2cc(F)c(F)cc2c1=O	245 to 247 °C
CC(C)(C)c1ccc(-c2cccc(-c3ccccc3)c2CC(=O)NC(=N)N)cc1	171 to 174 °C
COc1cc2c(c(OC(C)=O)c1)C1CCC3(C)C(OC(C)=O)=CCC3C1CC2 (centres undefined)	118 °C
COc1ccc(/C=C/C(=O)OCC(=O)COC(=O)/C=C/c2ccc(OC)cc2)cc1	146 to 148 °C
COc1ccnc(C(C)Sc2nc3cc(OC(F)F)c(OC)cc3[nH]2)c1 (centres undefined)	128 to 131 °C
CN(Cc1ccco1)C(=O)C=C1OC(C)(C)OC1=O	83 to 86 °C
COc1ccc(-c2ccc(-c3ccc(C)cc3)s2)s1	108 to 111 °C
CCc1cc2c(c(Sc3ccccc3)cc(=O)n2Cc2ccc(C(=O)O)cc2)c(CC)n1	260 to 262 °C
CCc1c(CCNC(=O)CCCCC(=O)NC(C)(C)Cc2ccc3c(c2CC)OCO3)ccc(OC)c1OC	103 to 104 °C
COc1ccc(C2=NN(c3ccc(Cl)cc3)C(=O)[C@H]3CC=CC[C@@H]23)cc1OC (relative stereo)	140 to 141 °C
N#Cc1ccc(-c2ccc(S(=O)(=O)N(CCO)CCO)cc2)[nH]c1=O	226 to 228 °C
COC(=O)c1ccc(OC2CCOC2=O)c([N+](=O)[O-])c1 (centres undefined)	99 to 101 °C
CCN(CC)C(=O)Oc1nc(-c2ccccc2)nc2ccccc12	54 °C
COc1cc(C)c(C=CC=CC=C(C)C(=O)O)c(C)c1C	179 to 180 °C
CCC(C)(NC(=O)c1cc(Cl)c(N)c(C=NOC)c1)C(=O)CCl (centres undefined)	140 to 141 °C
O=C(Nc1ccccc1)Nc1ccnc(O)c1	198 to 200 °C
O[C@@H](CNCCOc1ccc2oc(-c3ccon3)cc2c1)COc1ccccc1	107 to 110 °C
COC(CNC(=O)c1cccc(C(=O)NCC(OC)OC)c1)OC	76.5 to 78 °C
COc1cc(COc2nn(-c3ccccc3)cc2/C=C/C#N)ccc1OCc1nc(-c2ccccc2)oc1C	184 to 185 °C
O=c1c(Cl)c(CCl)nc2scnn12	193 to 195 °C
Fc1ccc(C2CCN(CCN(CCN3CCC(c4ccc(F)cc4)CC3)c3ccccc3)CC2)cc1	104 to 105 °C
CC(C)(C)NC(=O)Nc1nc2nc(N)ncc2cc1-c1c(Cl)cccc1Cl	335 °C
O=C(CCCCC1CCN(Cc2ccccc2)CC1)c1ccc(F)cc1	67 to 68 °C
C[C@H](Cn1ncnn1)n1cnc2cc3c(=O)n([C@H](C)Cn4cnnn4)nnc3cc2c1=O	168 to 170 °C
CCOC(=O)C1=CC2=C(C)C(C)(OC)C=C(C)C2=N1 (centres undefined)	182 to 183 °C
CCN1C(=O)Cc2cc3c(cc21)CCO3	106 to 107 °C
c1ccc(Cn2ccnc2CC2COc3ccccc3O2)cc1 (centres undefined)	105 to 107 °C
CCN1C(=O)C(C)(C)C(=O)N(C)c2cc(CN(CCn3ccc4oc(C)cc4c3=O)Cc3ccc4c(c3)OCO4)ccc21	180 to 182 °C
